Recorded Kd values for a group of compounds are listed next.
target: VEGFR2 (Homo sapiens (Human), UniProt P35968); experiment: Enzyme binding assay (KINOMEscan); settings: DiscoveRx, pKd = -log Kd (M)
Sequence (P35968 20-1356): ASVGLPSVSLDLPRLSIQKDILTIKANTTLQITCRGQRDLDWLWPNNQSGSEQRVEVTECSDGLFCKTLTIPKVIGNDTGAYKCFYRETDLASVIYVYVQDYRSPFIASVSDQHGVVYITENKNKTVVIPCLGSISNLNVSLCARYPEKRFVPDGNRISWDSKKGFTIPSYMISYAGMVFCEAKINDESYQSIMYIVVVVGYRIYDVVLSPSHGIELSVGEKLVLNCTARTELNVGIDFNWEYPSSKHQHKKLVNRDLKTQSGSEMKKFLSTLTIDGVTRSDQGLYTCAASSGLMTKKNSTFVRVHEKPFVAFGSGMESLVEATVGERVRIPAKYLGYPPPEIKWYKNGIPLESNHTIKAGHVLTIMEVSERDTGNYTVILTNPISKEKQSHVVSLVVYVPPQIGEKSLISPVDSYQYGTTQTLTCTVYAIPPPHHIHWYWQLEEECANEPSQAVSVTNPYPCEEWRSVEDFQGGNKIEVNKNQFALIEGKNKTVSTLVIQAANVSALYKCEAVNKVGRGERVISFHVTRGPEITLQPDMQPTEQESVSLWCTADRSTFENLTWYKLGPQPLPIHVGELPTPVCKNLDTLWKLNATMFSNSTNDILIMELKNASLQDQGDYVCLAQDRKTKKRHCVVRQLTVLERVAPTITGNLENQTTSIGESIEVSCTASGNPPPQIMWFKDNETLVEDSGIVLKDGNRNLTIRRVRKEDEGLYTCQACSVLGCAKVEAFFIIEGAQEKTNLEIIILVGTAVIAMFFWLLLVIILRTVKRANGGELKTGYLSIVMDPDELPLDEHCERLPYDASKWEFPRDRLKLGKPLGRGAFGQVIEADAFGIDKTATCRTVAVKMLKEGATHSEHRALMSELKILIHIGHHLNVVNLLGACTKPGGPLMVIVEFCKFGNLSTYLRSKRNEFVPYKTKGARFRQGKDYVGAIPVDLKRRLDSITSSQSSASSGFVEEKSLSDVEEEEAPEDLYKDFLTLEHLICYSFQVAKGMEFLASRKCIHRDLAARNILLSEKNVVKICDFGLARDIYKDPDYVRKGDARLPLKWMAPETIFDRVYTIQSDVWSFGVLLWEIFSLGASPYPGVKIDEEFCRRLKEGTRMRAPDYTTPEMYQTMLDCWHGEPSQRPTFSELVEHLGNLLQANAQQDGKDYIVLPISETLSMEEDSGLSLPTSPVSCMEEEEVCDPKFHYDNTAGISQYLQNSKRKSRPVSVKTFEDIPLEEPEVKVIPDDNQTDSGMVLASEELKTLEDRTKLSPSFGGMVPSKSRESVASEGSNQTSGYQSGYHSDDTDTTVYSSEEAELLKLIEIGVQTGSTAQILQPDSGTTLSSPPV

Request the reported Kd associated with COc1cc(OC)c2c(c1F)N(c1ccc3ncn(-c4cnn(C)c4)c(=O)c3c1)CCN(C(C)C)C2
> 3.02e-06 M

Fill in the blank: the reported Kd of COc1cc(OC)c2c(c1)N(c1ccc3ncc(-c4cnn(C)c4)cc3c1)CCN(C)C2 is ____.
> 3.02e-06 M

Please report the recorded Kd for COc1cc(O)c2c(c1)N(c1ccc3ncc(-c4cnn(C)c4)cc3c1)CCN(C(C)C)C2 .
> 3.02e-06 M

Can you share its Kd? I mean this compound: COc1cc(OC)c2c(c1)N(c1ccc3ncc(-c4cnn(C)c4)nc3n1)CCN(C(C)C)C2
2.69e-07 M

Would you kindly share the measured Kd for COc1cc(OC)c2c(c1)N(c1ccc3ncc(-c4cnn(C)c4)cc3c1)CCN(C(C)C)C2 ?
> 3.02e-06 M

Further cases:
// lookup Kd for COc1cc(OC)c2c(c1)N(c1ccc3ncn(-c4cnn(C)c4)c(=O)c3c1)CCN(C(C)C)C2
> 3.02e-06 M
